Value source: patent US20150376269A1

Give 50 nM SRA binding (RU) for every item shown.
Biological target: T1, serum resistance-associated protein (SRA) from Trypanosoma brucei rhodesiense, recombinant SRA (SEQ ID NO: … (Trypanosoma brucei rhodesiense, UniProt O96637 31-274))
T1 construct: also called SRA protein
T1 sequence: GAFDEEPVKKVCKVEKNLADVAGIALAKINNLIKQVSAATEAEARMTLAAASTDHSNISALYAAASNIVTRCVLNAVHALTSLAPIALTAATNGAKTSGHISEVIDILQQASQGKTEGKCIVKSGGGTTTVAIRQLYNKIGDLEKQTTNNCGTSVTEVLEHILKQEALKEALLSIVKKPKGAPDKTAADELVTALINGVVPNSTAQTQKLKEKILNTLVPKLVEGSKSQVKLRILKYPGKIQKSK
Test: SPR, mAb captured, 50 nM SRA, pH 4.5, 25C
Give bare numbers, in RU.

binder	unit.of.measurement	50 nM SRA binding (RU)
H1H10061P (antibody, V domains shown, Fully human antibody with human IgG1 Fc (prefix H1H)) VH: QVQLVESGGGVVQPGNSLRLSCAASGFTFSAYGMHWVRQAPGKGLEWVAVISYDGSNEFYADSVKGRFTIFRDNSKNMLYLQMNSLRVEDTSIYYCAKDRGLGVYYFFYGMDVWGQGTTVTVSS VL: DIVMTQSPDSLVVSLGERATINCKSSQSLLYSSSNNNYLTWYQQKPGRPPKLLIYWASTRESGVPDRFSGSGSGTDFTLTISSLQAEDVAIYYCQQNYITPLTFGGGTKVEIK	RU	79

Now, please, on to the next binder.
Input line: Fill in the blank: the reported 50 nM SRA binding (RU) of H1H10041P (antibody, V domains shown, Fully human antibody with human IgG1 Fc (prefix H1H)) VH: QVQLVQSGAEVRKPGSSMKVSCATSGGNFRSYTINWVRQAPGQGLEWMGGVFPAVGTRIYAQKFQGRVTISTDESTTIAYMELNSLVPEDTAVYYCARSFNSPFDFWDQGTLVTVSS VL: AIQMTQSPSSLSASVGDRVTLTCRASQDIRNDLHWFQQTPGKAPRLLIYSASNLQSGVPSRFSGTGSGTDFTLTFSSLQPEDFATYYCLQDYSYPYTFGQGTKLEIK is ____.
Output line: 88
